Provenance of the data: the supplement of paper PMC11417369

test system: PfAP2-EXP AP2 domain (GST-tagged); assay: gcPBM binding intensity (ln(normalized median fluorescence intensity)); higher = stronger DNA binding
Over roughly 25,000 sequences, “ln(normalized median fluorescence intensity)” has its median near 8.6; the highest 2% begin near 10. The list comes from a sample in which the highest values are over-represented; it also holds close analogues and randomly drawn sequences.
ENDPOINT: gcPBM binding intensity (ln)

Looking for the measured gcPBM binding intensity (ln) of AATGAATAATTATTTTGTACATAATATTATATTTAT [XGTACX_site5350] , can you help?
8.34

Now consider TTATCATTTTAAATCACACACATATATAAATATGTA [CACACA_site7359] and answer again.
8.28

Now consider TATATATATACATATTGTACATGTGTATATTTTTTT [XGTACX_site361] and answer again.
8.93

Now consider TTTTGTTCTAATATGGGAACATAAATATTAAATATA [CACACA_negctrl_site1787] and answer again.
8.22

Now consider TACATTTAAAAAAAAACACACATATATATATATATA [CACACA_site2535] and answer again.
10.3

Now consider AACTTACTCTTTACAAGTACGTAAAAGAAATAGAAA [XGTACX_site1782] and answer again.
8.51

Now consider TCTTATCATTTTAAATCACACACATATATATATATA [CACACA_site8925] and answer again.
10.2

Now consider GGAATATTAAAAAAATGTACAAAAAATAATATCCAT [XGTACX_site2596] and answer again.
8.97

Now consider TTAAAAAAAAAACACACACACATACACATATATATA [CACACA_site3299] and answer again.
8.77

----------
Provide the recorded gcPBM binding intensity (ln) for the entries that follow.
system: PfAP2-EXP AP2 domain (GST-tagged); assay: gcPBM binding intensity (ln(normalized median fluorescence intensity)); higher = stronger DNA binding
The full ranking holds about 25,000 sequences; the median of “ln(normalized median fluorescence intensity)” is about 8.6, and the highest 2% start at about 10. Many of the other results were omitted from the sample, so the highest values are more common in it than they were.

Looking for the measured gcPBM binding intensity (ln) of GTATGTATGTATATATGTACACATTATTATTTAATG [XGTACX_site5802] , can you help?
8.78

Now consider AAAGCACCCAAGAATACACACAAATATTATAAAAAA [CACACA_site111] and answer again.
8.57

Now consider TTCTATATATTTGGAAGTACATTATATTTATTTTTT [XGTACX_site3172] and answer again.
8.44

Now consider ATAGGTAATAATAATACACACGGTGAAATATAGATG [CACACA_site9336] and answer again.
8.88

Now consider TAAACATAATAATATACACACATATATTGATATATA [CACACA_site2144] and answer again.
8.18

Now consider ATATAACACAAGGGCACACATATACCTTTCCTTTTT [CACACA_site412] and answer again.
8.77

Now consider ATAAAAAAAAGAAAAACACACACATATATATATATA [CACACA_site8243] and answer again.
10.2

Now consider ATTTTTTTATAAGAAAATTTCTAACGTTAAAAAAAA [CACACA_negctrl_site1367] and answer again.
8.38

Now consider AAATTAAAATATATATGTACATATATATATATATAT [XGTACX_site7844] and answer again.
10

Now consider ATAATGTTTTATAATACACACATTATGTATATAAAT [CACACA_site4077] and answer again.
8.36

Now consider ATTTTTAAATACAGTACACACATGGGTTTAAATTAT [CACACA_site2884] and answer again.
8.63

Now consider TATAAAAGGAAACACACACACATATATATATATATA [CACACA_site939] and answer again.
10.2

Now consider AGGAAAAAAGAAAAAACACACATAAATATATATATA [CACACA_site3085] and answer again.
9.64

Now consider TATACATATATTATATGTACATATATATATAATATA [XGTACX_site2942] and answer again.
8.29

Now consider ACTATAAATATATACACATGCGCACACACAAGTGGG [TGCATGCA_site432] and answer again.
8.77

Now consider TTTAATTAAAATATATGTACATATATATATATATAT [XGTACX_site4517] and answer again.
10.4

Now consider ATATAATTCAAATACAGTACATATACAATATATACA [XGTACX_site1191] and answer again.
8.21

Now consider AAGGAATAATATAAAACACACACATAAATATAAATA [CACACA_site9115] and answer again.
8.68

Now consider TATTATTGTTGTTCATGTACACACTATAATAAAAGC [XGTACX_site8957] and answer again.
8.64

Now consider ATATATATATATATATGTACACATTAATGTTTTTTT [XGTACX_site167] and answer again.
10.4

Now consider AAATTAATATAAATATGTACATAAATAATAAAATAT [XGTACX_site6131] and answer again.
8.71

Now consider AATAAAAATAAAAATTGTACACTTTTTTAATATTTA [XGTACX_site892] and answer again.
8.11

Now consider ATTTATATTTTTTAATGTACATTTATATGTATACAA [XGTACX_site4555] and answer again.
8.78

Now consider AACAAGAAAAAAAAAAAAAAAAAAAAAAAATATTTT [XGTACX_negctrl_site428] and answer again.
8.13

Now consider TCATGGAATATTTAAAGTACAAAAAGTGTTCTTTAC [XGTACX_site715] and answer again.
8.21

Now consider ATAAAAAGGAAACACACACACACACCCATATATATA [CACACA_site904] and answer again.
8.73

Now consider AATTGGAAGAAAAAAAAGGAAGGAAAGTTATTACAT [GTGCAC_negctrl_site74] and answer again.
8.62

Now consider TTTTTTTTTTTTTTTTGTACATATTTTAATTTGTTT [XGTACX_site6297] and answer again.
8.05

Now consider AACATTATAAGACACACACACACATATATAAATATA [CACACA_site6622] and answer again.
8.65

Now consider `TAAAATTAATTTCTGTTGCACTTATTATTAATTAAC` and answer again.
8.84
